From: patent US20220144922A1

# system_under_test: T1, postfusion RSV F ectodomain (F ΔFP), subtype A (respiratory syncytial virus subtype A, UniProt P03420 26-109; P03420 147-524)
# T1 construct: extracellular domain; also called Postfusion subtype A
# test: BLI, IgG on sensor
measured_quantity: Kd
Please state the value followed by its unit.

The following binders each have a reported value; give each one's Kd.
1. ADI-15659 (antibody, V domains shown, IgG; also called Antibody Number 223) VH: QVQLVQSGAEVKKPGSSVKVSCKASGGTFSTYGISWVRQAPGQGLEWMGRVIPMFGTATYAQKFQDRVTITADKATSTAYMELNSLRSDDTAVYYCARCPPFEGVRPPWFDPWGQGTLVTVSS VL: SYELTQPPSVSVAPGRTAKITCGGYNIGNKRVHWYRQRPGQAPVLIVYDNADRPSGIPERFSGSNSGNTATLTISNVAAGDEADYHCQVWETSSDHPVFGGGTKLTVL
2. ADI-15561 (antibody, V domains shown, IgG; also called Antibody Number 132) VH: QVQLVQSGAEVKKPGSSVKVSCKASGGTFSSYAINWVRQAPGQGLEWMGGIIPAFGTTIYAQRFQDRVTITADKSTSTAYMELRSLRSEDTAVYYCARSPPFWSDYSRGWFDPWGQGTLVTVSS VL: ETTLTQSPSALSASVGDRVTITCRASQTISGYLNWYQQKPGKAPKLLIYAASSLQSGVPSRFSGSSAGTDFTLSISNLQPEDFATYYCQQSYTTPWTFGQGTKVEIK
3. ADI-15663 (antibody, V domains shown, IgG) VH: QVQLVQSGGGLVKPGGSLRLSCAASGFTFSSYTMNWVRQAPGKGLEWVSSITGGSSFTNYADSLEGRFTISRDNAKSSLFLQMNSLRVEDTAVYYCARDQPGTIFGVVQDYWGQGTLVTVSS VL: QSVLTQPPSVSGAPGQRVTISCTGGSSNIGAGYDVHWYQQLPGTAPKLLIYGNSNRPSGVPDRFSGSKSGTSASLAITGLQAEDEADYYCQSYDSRLSVVFGGGTKVTVL

1.13 nM
0.591 nM
2.32 nM
